# target-or-test-system: Histone-lysine N-methyltransferase EHMT2 (Homo sapiens)
# experiment-notes: qHTS Assay for Inhibitors of Histone Lysine Methyltransferase G9a; also: nearly all actives have a fitted effect of over 75% in size
# assay-conditions: G9a H3K9 monomethylation, AlphaScreen, 2 h; series mostly up to 59 µM
About 31,000 (8.9%) of roughly 350,000 compounds were called active. About 15% were inconclusive and are not listed. Calls follow the shape of the dose curve; as a rule, active = well fitted inhibition curve with a large enough effect; inconclusive = small, poorly fitted or top-dose-only effect; inactive = no such curve, though single readings can be large or run the other way. The list comes from a sample in which actives are over-represented; it also holds close analogues and randomly drawn compounds.
The categories you may choose from are TRUE (active), FALSE (inactive)

Reference set (10 entries):
molecule	assigned-class
Cc1cccc(C)c1OCC(O)CN1CCCCC1 (stereo unspecified)	FALSE
CCOc1ccc2nc(NCCNC(=O)C(C)(C)C)c(C)cc2c1	FALSE
Cc1ccc2nc(-c3ccc(NC(=O)CN(C)S(=O)(=O)c4ccccc4)cc3)sc2c1	FALSE
CCOc1ccc(S(=O)(=O)NCCSc2ccccc2)cc1	FALSE
CC(=O)c1ccc(OCCN2CCOCC2)cc1	TRUE
O=C(Nc1ccc(Cl)c(Cl)c1)c1ccccc1NC(=O)C1CC=CCC1C(=O)O (stereo unspecified)	FALSE
COc1ccc(CCNc2nc3c(-c4cccc(F)c4)nnn3c3ccccc23)cc1OC	FALSE
CSCC[C@H](NC(=O)N1CCn2c1nc1ccccc12)C(=O)NCc1ccc2c(c1)OCO2	FALSE
COc1ccccc1C(=O)NC(CCSC)C(=O)N1CCN(C/C=C/c2ccccc2)CC1 (stereo unspecified)	TRUE
O=C(Cc1ccccc1)Nc1ccc(C(=O)Nc2ccccc2C(=O)O)cc1	FALSE

We next turn to a different molecule, shown below.
Hi, do you know how CCCCOc1ccc(C(C)(O)CCN2CCOCC2)cc1 (stereo unspecified) came out in this test?
FALSE

* * *

# target-or-test-system: Histone-lysine N-methyltransferase EHMT2 (Homo sapiens)
# experiment-notes: qHTS Assay for Inhibitors of Histone Lysine Methyltransferase G9a; also: nearly all actives have a fitted effect of over 75% in size
# assay-conditions: G9a H3K9 monomethylation, AlphaScreen, 2 h; series mostly up to 59 µM
# Procedure: Methylated lysines, on the N-terminal tails of histone proteins serve as epigenetic markers to recruit factors that can then modify local chromatin structure to lead to functional consequences. […] Methylation of biotinylated-histone peptide is measured through specific antibody-based detection, in conjunction with streptavidin-coated donor and anti-IgG antibody-coated acceptor beads. […]
About 31,000 (8.9%) of roughly 350,000 compounds were called active. Roughly 15% stayed inconclusive and do not appear here. The call rests on the fitted dose curve; in most records, active means well fitted inhibition curve with a large enough effect; inconclusive means small, poorly fitted or top-dose-only effect; inactive means no such curve, though single readings can be large or run the other way. Many of the other results were omitted from the sample, so actives are more common in it than they were.
The categories you may choose from are T for active, F for inactive

Reference set (10 entries):
structure-notation	target-or-test-system	assigned-class
COc1ccc(F)cc1S(=O)(=O)Nc1ccc2c(c1)OCO2	Histone-lysine N-methyltransferase EHMT2 (Homo sapiens)	F
Cc1ccccc1-n1nc(C)c2cc(C(=O)NC3CC3)sc21	Histone-lysine N-methyltransferase EHMT2 (Homo sapiens)	T
C/C(=N\NC(=O)c1nc(C)cc(C)n1)c1ccccc1	Histone-lysine N-methyltransferase EHMT2 (Homo sapiens)	F
COc1ccc(Nc2ncc(C(=O)Nc3cc(C)ccc3OC)c3ccccc23)cc1	Histone-lysine N-methyltransferase EHMT2 (Homo sapiens)	F
COc1ccc(Cl)cc1N(C)C(=O)c1cc2c(=O)oc3ccc(C)cc3c2s1	Histone-lysine N-methyltransferase EHMT2 (Homo sapiens)	F
Cc1cccn2c(=O)c3cc(C(=O)NC4CCCCC4)sc3nc12	Histone-lysine N-methyltransferase EHMT2 (Homo sapiens)	F
Cc1ccc(OCCSc2nc3ccc(NC(=O)COc4ccc(C)cc4)cc3s2)cc1	Histone-lysine N-methyltransferase EHMT2 (Homo sapiens)	F
Cc1cc(C)c(SCCc2ccncc2)c(C)c1	Histone-lysine N-methyltransferase EHMT2 (Homo sapiens)	F
Cc1cc(C)nc(S/C=C/C(=O)c2ccccc2)n1	Histone-lysine N-methyltransferase EHMT2 (Homo sapiens)	T
Cc1cccc(NC(=O)Cn2nc(-c3ccc(Cl)cc3)c3ccccc3c2=O)c1	Histone-lysine N-methyltransferase EHMT2 (Homo sapiens)	F

We next turn to a different molecule, shown below.
Hi, do you know how O=C(OCC(=O)N1CCCC1)c1ccc(Cl)nc1 came out in this test?
F

* * *

# target-or-test-system: Histone-lysine N-methyltransferase EHMT2 (Homo sapiens) (UniProt Q96KQ7)
# Sequence (Q96KQ7 913-1193 limits assumed): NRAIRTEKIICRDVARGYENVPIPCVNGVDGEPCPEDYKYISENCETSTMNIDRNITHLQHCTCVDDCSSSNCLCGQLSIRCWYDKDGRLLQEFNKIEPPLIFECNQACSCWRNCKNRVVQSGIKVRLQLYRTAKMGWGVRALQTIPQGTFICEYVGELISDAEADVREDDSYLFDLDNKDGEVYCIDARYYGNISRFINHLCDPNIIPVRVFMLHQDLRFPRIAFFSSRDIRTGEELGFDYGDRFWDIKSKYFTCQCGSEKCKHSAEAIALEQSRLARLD
# experiment-notes: qHTS Assay for Inhibitors of Histone Lysine Methyltransferase G9a; also: nearly all actives have a fitted effect of over 75% in size; as to activity, negative = inhibition: % is scaled to controls: 0 for no effect and ±100 for the full control effect
# assay-conditions: G9a H3K9 monomethylation, AlphaScreen, 2 h; series mostly up to 59 µM
About 31,000 (8.9%) of roughly 350,000 compounds were called active. Roughly 15% stayed inconclusive and do not appear here. This excerpt belongs to a sample that is enriched for actives.
Assignment: determine reported activity, negative = inhibition for the given compounds.

Known results for compounds:
compound	activity, negative = inhibition
Cc1c(C(=O)N2CCOCC2)[nH]c2ccc(OCc3ccccc3)cc12	-37.5% [at 12.7 µM] (inactive)
Cc1ccc(OCC(=O)Nc2ccccc2C(=O)NC2CC2)cc1	16.8% [at 12.7 µM] (inactive)
O=C(N[C@@H](Cc1c[nH]c2ccccc12)C(=O)O)OCC1c2ccccc2-c2ccccc21	-0.61% [at 0.501 µM] (inactive)
COc1ccccc1N1CCN(C(=O)c2cc(=O)c3cc(C)cc(C)c3o2)CC1	-10.5% [at 2.33 µM] (inactive)

Would you be so kind as to report activity, negative = inhibition for each listed record?
1. CCOC(=O)c1c(CNCc2ccccc2F)c2sc(C)cc2n1C
2. COc1ccccc1-c1nn(Cc2ccccc2)cc1C(=O)N1CCN(c2ncccn2)CC1
3. O=C(NCCc1ccc(F)cc1)c1ccc2nccnc2c1
4. Cc1ccc2nc(SCC(=O)N3CCN(c4ccccc4)CC3)nc(=O)n2c1
5. CCCCn1c(N)c(N(CC)C(=O)c2ccc(N(C)S(=O)(=O)c3ccc(C)cc3)cc2)c(=O)[nH]c1=O
6. O=C(CN1CCCSc2ccccc21)N1CCN(S(=O)(=O)c2cccc(F)c2)CC1
7. O=C(COC(=O)c1c(Cl)cccc1Cl)Nc1cccc(S(=O)(=O)NC2=NCCCCC2)c1

12% [at 12.7 µM] (inactive)
21.8% [at 12.7 µM] (inactive)
-12.4% [at 12.7 µM] (inactive)
-0.43% [at 0.501 µM] (inactive)
8.91% [at 12.7 µM] (inactive)
15.4% [at 12.7 µM] (inactive)
-0.124% [at 12.7 µM] (inactive)

* * *

# target-or-test-system: Histone-lysine N-methyltransferase EHMT2 (Homo sapiens)
# experiment-notes: qHTS Assay for Inhibitors of Histone Lysine Methyltransferase G9a; also: nearly all actives have a fitted effect of over 75% in size
# assay-conditions: G9a H3K9 monomethylation, AlphaScreen, 2 h; series mostly up to 59 µM
Hit rate of the full screen: of about 350,000 compounds, about 31,000 (8.9%) were called active. About 15% were inconclusive and are not listed. Calls follow the shape of the dose curve; as a rule, active = well fitted inhibition curve with a large enough effect; inconclusive = small, poorly fitted or top-dose-only effect; inactive = no such curve, though single readings can be large or run the other way. Only a selection was taken, and actives are over-represented in it overall.
The categories you may choose from are active, inactive

structure-notation	assigned-class
Cc1ccc(C(=O)c2c(NC(=O)c3ccccc3)sc(C)c2C)cc1	active
Cc1sc(NC(=O)c2ccc3ncsc3c2)c(C(N)=O)c1C	inactive
CCOc1ccc(S(=O)(=O)N2CCC(C(=O)OCc3ccc(OC)cc3)CC2)cc1	inactive

Hi, do you know how COc1cc(/C=C/C2=CC(C)(C)NC(=S)N2)cc(OC)c1OC came out in this test?
active

Hi, do you know how Cc1ccc(S(=O)(=O)N(CC(=O)NCc2ccco2)c2ccccc2C)cc1 came out in this test?
inactive

Hi, do you know how COc1ccc(/C=N/NC(=O)c2ccc(Cl)cc2)cc1COC(C)=O came out in this test?
inactive

Hi, do you know how CCOC(=O)c1ccc(NC(=O)c2c(NCc3cccc(OC)c3)sc3c2CCC3)cc1 came out in this test?
active

Hi, do you know how CCOc1ccc(CCNC(=O)c2csc3c2CCCCC3)cc1 came out in this test?
inactive

Hi, do you know how COc1ccc2[nH]c(C(=O)N/N=C/c3cc(OC)c(OC)c(OC)c3)cc2c1 came out in this test?
inactive

Hi, do you know how COc1ccc(OC)c(-n2nnc(-c3nc(-c4cc(OC)c(OC)c(OC)c4)no3)c2C)c1 came out in this test?
inactive

* * *

# target-or-test-system: Histone-lysine N-methyltransferase EHMT2 (Homo sapiens)
# experiment-notes: qHTS Assay for Inhibitors of Histone Lysine Methyltransferase G9a; also: nearly all actives have a fitted effect of over 75% in size
# assay-conditions: G9a H3K9 monomethylation, AlphaScreen, 2 h; series mostly up to 59 µM
Screen size: about 350,000 compounds; about 31,000 (8.9%) were called active. Inconclusive results (about 15%) are left out. Calls come from the whole dose curve; as a rule, active = well fitted inhibition curve with a large enough effect; inconclusive = small, poorly fitted or top-dose-only effect; inactive = no such curve, though single readings can be large or run the other way. The list comes from a sample in which actives are over-represented; it also holds close analogues and randomly drawn compounds.
The categories you may choose from are active, inactive

Reference set (8 entries):
compound	assigned-class
Cc1ccccc1CN1CCC(CNC(=O)c2cc3ccc4cccnc4c3[nH]2)CC1	inactive
Cc1ccc(CNC(=O)c2c(O)nc3c(C)cccn3c2=O)cc1	inactive
COC(=O)c1ccc(C2C(C(=O)Nc3ccccc3)=C(C)Nc3nc4ccccc4n32)cc1 (stereo not given)	inactive
Cc1cccc(-n2c(SCC(N)=O)nc3c(oc4ccccc43)c2=O)c1	inactive
Cc1cc(C)cc(NC(=O)CCS(=O)(=O)c2cc3c4c(c2)CCN4C(=O)CC3)c1	inactive
Cc1ccc(Oc2ccc(N)cc2)cc1	active
Cc1ccnc(NC(=O)CCNS(=O)(=O)c2ccc(C)c(C)c2)c1	inactive
COc1cccc(-c2nc(S(=O)(=O)c3ccc(C)cc3)c(NCc3ccccc3)o2)c1	inactive

Hi, do you know how NC(=O)N/N=C\c1cccs1 came out in this test?
inactive

Hi, do you know how O=Cc1c(NCCCN2CCCC2=O)c2ccccc2[nH]c1=O came out in this test?
inactive

Hi, do you know how Cc1cccc(-n2c(C)cc(/C=N\NC(=O)c3cccs3)c2C)c1 came out in this test?
inactive
